- TESTED_ON: T1, TPP-2305, hTNFRSF12 amino acids a28-80 (recombinant human TWEAKR protein) (human, UniProt Q9NP84 28-80)
- T1 construct: Soluble monomeric antigen, injected as analyte over the captured antibodies; Bought protein
- MEASUREMENT_PROTOCOL: SPR (Biacore T100), antibody captured, TWEAKR TPP-2305 as analyte, 1:1 model
Recorded kon, one value per entry.
Reply with just the number (in M⁻¹ s⁻¹).

Before answering, review these 2 worked examples.
TPP-2090 (antibody, human IgG1, kappa, V domains shown, human IgG1; also called anti-TWEAKR AK-1) VH: EVQLLESGGGLVQPGGSLRLSCAASGFTFSPYPMIWVRQAPGKGLEWVSYISPSGGSTHYADSVKGRFTISRDNSKNTLYLQMNSLRAEDTAVYYCARGGDTYFDYFDYWGQGTLVTVSS VL: DIQMTQSPSSLSASVGDRVTITCRASQSISGYLNWYQQKPGKAPKLLIYQASSLQSGVPSRFSGSGSGTDFTLTISSLQPEDFATYYCQQSYTSPFITFGQGTKVEIKR; 9.1e+06
18.3.3(TPP-2193) (antibody, mouse IgG2a, kappa, V domains shown, Comparative antibody, murine IgG2a; variable domains from WO2009/020933 with added constant regions) VH: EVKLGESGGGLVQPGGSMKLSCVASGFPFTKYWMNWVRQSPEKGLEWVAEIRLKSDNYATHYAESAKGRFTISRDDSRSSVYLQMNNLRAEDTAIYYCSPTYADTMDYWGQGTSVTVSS VL: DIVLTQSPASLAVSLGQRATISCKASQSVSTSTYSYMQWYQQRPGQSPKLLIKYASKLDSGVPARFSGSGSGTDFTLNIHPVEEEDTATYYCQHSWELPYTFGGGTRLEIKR; 1.64e+07

Now consider a different binder.
Indicate its recorded kon; the binder in question is 136.1(TPP-2194) (antibody, mouse IgG2a, kappa, V domains shown, Comparative antibody, murine IgG2a; variable domains from WO2009/020933 with added constant regions) VH: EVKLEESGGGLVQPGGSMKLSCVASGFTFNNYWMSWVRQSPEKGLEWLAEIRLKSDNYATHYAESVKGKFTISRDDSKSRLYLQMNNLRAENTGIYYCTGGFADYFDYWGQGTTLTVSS VL: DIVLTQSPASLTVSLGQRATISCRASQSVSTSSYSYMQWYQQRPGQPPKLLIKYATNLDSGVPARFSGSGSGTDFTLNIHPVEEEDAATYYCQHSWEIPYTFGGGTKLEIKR
3.84e+07
